- Tested on: Fibroblast
- TEST NAME: Multiplex assay against human fibroblast
- Type: toxicity, cell-based
- MEASUREMENT CONDITIONS: 24 h, 1 µM, compound concentration 1 uM, replicate 2
A collection of molecules and their measured Population Mitotic Cells (%)
Give the value; after it, write the unit.

Input line: Please report the recorded Population Mitotic Cells (%) for Cc1nc2ccc(Oc3ccc(F)cc3)cc2c(=O)n1C[C@H]1CCCN(C(C)C)C1.Cl .
Output line: 61%

Input line: Please report the recorded Population Mitotic Cells (%) for N#Cc1c(N)nc(SCc2csc(-c3ccc(Cl)cc3)n2)c(C#N)c1-c1ccc(OCCO)cc1 .
Output line: 51%

Input line: Please report the recorded Population Mitotic Cells (%) for CN1CCN(c2nc3cc(C(F)(F)F)ccc3n3cccc23)CC1.O=C(O)/C=C\C(=O)O.O=C(O)/C=C\C(=O)O .
Output line: 59%

Input line: Please report the recorded Population Mitotic Cells (%) for Cc1ccccc1C(=O)Nc1ccc(C(=O)N2CCCC(N(C)C)c3ccccc32)cc1.Cl (stereo not given) .
Output line: 56%

Input line: Please report the recorded Population Mitotic Cells (%) for C[C@H]1[C@H]2CC[C@H]3[C@@H]4CC=C5C[C@@H](N(C)C)CC[C@]5(C)[C@H]4CC[C@]23CN1C .
Output line: 59%

Input line: Please report the recorded Population Mitotic Cells (%) for O=C(NCC(=O)N1CC[C@H](N[C@H]2CC[C@@](O)(c3ccc(-c4ncccn4)cn3)CC2)C1)c1cccc(C(F)(F)F)c1 .
Output line: 55%

Input line: Please report the recorded Population Mitotic Cells (%) for CCCN1CCC[C@@H]2Cc3n[nH]cc3C[C@H]21.Cl [QUINPIROLE HYDROCHLORIDE] .
Output line: 65%

Input line: Please report the recorded Population Mitotic Cells (%) for CN(C)c1ccnc2sc3c(=O)n(N4CCCCCC4)cnc3c12 .
Output line: 50%

Input line: Please report the recorded Population Mitotic Cells (%) for O=S(=O)(c1ccccc1)c1cnc2c(N3CCNCC3)cccc2c1 [INTEPIRDINE] .
Output line: 58%

---

- Test system: Fibroblast
- TEST NAME: Multiplex assay against human fibroblast
- Format: toxicity, cell-based
- MEASUREMENT CONDITIONS: 12 h, 1 µM, compound concentration 1 uM, replicate 2
MEASURE: Population Pyknosed Nuclei (%)
Give the value in % but do not write % after it.

CC(=O)NCCc1c(Cc2ccccc2)[nH]c2ccccc12 [LUZINDOLE]; 34

Input line: Please report the recorded Population Pyknosed Nuclei (%) for CNC[C@H](O)c1ccc(O)c(O)c1 [EPINEPHRINE] .
Output line: 17

Input line: Please report the recorded Population Pyknosed Nuclei (%) for C[C@@H]1C[C@H]2[C@@H]3CCC4=CC(=O)C=C[C@]4(C)[C@@]3(F)[C@@H](O)C[C@]2(C)[C@@]1(O)C(=O)CO [DEXAMETHASONE] .
Output line: 20

---

- Tested on: HEK-293T
- TEST NAME: Multiplex assay against HEK293T
- Assay type: toxicity, cell-based
- MEASUREMENT CONDITIONS: human, 12 h, 10 µM, compound concentration 10 uM, replicate 2
MEASURE: Population Mitochondria Different-Phenotype (%)
Give the value in % but do not write % after it.

Cc1ccc(/C(=C\CN2CCCC2)c2ccccn2)cc1; 74
O=C1COc2nccc(-c3ccccc3F)c2CN1Cc1cc(C(F)(F)F)cc(C(F)(F)F)c1; 76

Next item in the queue.
Input line: Please report the recorded Population Mitochondria Different-Phenotype (%) for CC1(COc2ccc3c(c2)ncn3-c2ccc3cccc(N4CCC(N)CC4)c3n2)COC1 .
Output line: 90

// provenance: ChEMBL document CHEMBL5058577
